// data source = patent US20080003288A1

Assay: Transepithelial transport of doxorubicin across Caco-2 monolayers
Assay type: in vitro ADME
Details: human, Caco-2; no additives; read-out: active efflux exceeding the passive influx
quantity: efflux ratio
Would you mind answering with just the numeric figure?

Name the recorded efflux ratio for COc1cccc2c1C(=O)c1c(O)c3c(c(O)c1C2=O)C[C@@](O)(C(=O)CO)C[C@@H]3O[C@H]1C[C@H](N)[C@H](O)[C@H](C)O1 .
4.6
